Numbers sourced from the supplement of paper PMC6522484.

# Tested on: DLD1
# experiment.notes: TCF/Wnt firefly luciferase reporter signal relative to plate median (fraction of plate median); higher = higher Wnt reporter signal
# details: 5 µM; treatment time 24 h; reporter: 7TFP
As shown below, each of these compounds has a reported TCF/Wnt firefly luciferase reporter signal value.
Returns: the value as a bare number; no unit string appended.

Example results:
In [3]: df
Out[3]:
                                   compound  readout_number
0  CC(=O)OCC(=O)[C@@]12OC(C)(C)O[C@@H]1C[C@H]1[C@@H]3C[C@H](F)C4=CC(=O)C=C[C@]4(C)[C@@]3(F)[C@@H](O)C[C@@]12C            1.03
1  CC1(C)O[C@@H]2C[C@H]3[C@@H]4C[C@H](F)C5=CC(=O)C=C[C@]5(C)[C@@]4(F)[C@@H](O)C[C@]3(C)[C@]2(C(=O)CO)O1           0.974
2  CN(C)CCC(c1ccc(Br)cc1)c1ccccn1 (centres undefined)            1.11

Value of measured TCF/Wnt firefly luciferase reporter signal for the entry CCCCOc1ccc(OCCCN2CCOCC2)cc1 : 0.993

====

As shown below, each of these compounds has a reported TCF/Wnt firefly luciferase reporter signal value.
# Test system: DLD1
# experiment.notes: TCF/Wnt firefly luciferase reporter signal relative to plate median (fraction of plate median); higher = higher Wnt reporter signal
# details: 10 µM; treatment time 24 h; reporter: TCF4/Wnt

>>> print(df.to_string())
                                   compound  result
0  C=CC(=O)N1CCC[C@@H](n2nc(-c3ccc(Oc4ccccc4)cc3)c3c(N)ncnc32)C1   0.881
1  Cc1ccc(NC(=O)c2ccc(CN3CCN(C)CC3)cc2)cc1Nc1nccc(-c2cccnc2)n1 [Imatinib (Gleevec)]    1.55
2  COc1ccc(-c2ccc3ncc4c(c3c2)n(-c2ccc(N3CCNCC3)c(C(F)(F)F)c2)c(=O)n4C)cn1  0.0791
3  COc1ncc(-c2ccc3nccc(-c4ccnnc4)c3c2)cc1NS(=O)(=O)c1ccc(F)cc1F   0.238
4  NC(=O)c1ccc(N(C(N)=O)c2c(F)cccc2F)nc1-c1ccc(F)cc1F   0.756
5  CN1CCN(c2nc(C3=C(c4c[nH]c5ccccc45)C(=O)NC3=O)c3ccccc3n2)CC1 [Sotrastaurin (AEB071)]    1.52
6  CN1CCN(c2cccc(Nc3nc4c(-c5ccc(S(C)(=O)=O)cc5)cccn4n3)c2)CC1    1.03

Now for another entry.
Value of measured TCF/Wnt firefly luciferase reporter signal for the entry CCOc1ccn(-c2ccc(F)cc2)c(=O)c1C(=O)Nc1ccc(Oc2ccnc(N)c2Cl)c(F)c1 : 0.893

====

# Tested on: SW480
# experiment.notes: cell viability (CellTiter-Glo) relative to plate median (fraction of plate median); higher = more viable cells
# details: 5 µM; treatment time 24 h; reporter: 7TFP
As shown below, each of these compounds has a reported cell viability value.

Example results:
>>> df
                                   compound  system_tested    assay_metric  result
0  O=C(O)[C@@H](O)[C@H](O)[C@H](O)[C@@H](O)C(=O)O          SW480  cell viability       1
1  CCOC(=O)[C@H](CCc1ccccc1)N[C@@H](C)C(=O)N1Cc2ccccc2C[C@H]1C(=O)O          SW480  cell viability   0.952
2          Cc1ccnc(NS(=O)(=O)c2ccc(N)cc2)n1          SW480  cell viability   0.953
3  O=C(O)c1cn(-c2ccc(F)cc2)c2cc(N3CCNCC3)c(F)cc2c1=O          SW480  cell viability   0.998

Now for another entry.
Item OC[C@H]1O[C@@H](O[C@@H]2[C@@H](CO)OC(O)(CO)[C@H]2O)[C@H](O)[C@@H](O)[C@H]1O (mixture of isomers) was tested on SW480; the reported cell viability is 0.984
